Structures can show the parent of a compound that is named as a salt.
Quantity Name: melting point (°C)

Value lookup for melting point; key = CNC[C@@H](O)Cc1ccc(Cl)c(C(=O)NCC23CC4CC(CC(C4)C2)C3)c1 (as salt: hydrochloride)
196

// melting point lookup, key: CC(C)NC[C@H](O)Cc1ccc(Cl)c(C(=O)NCC23CC4CC(CC(C4)C2)C3)c1 (as salt: hydrochloride)
189

# query: melting point of entry CCNC[C@H](O)Cc1ccc(Cl)c(C(=O)NCC23CC4CC(CC(C4)C2)C3)c1 (as salt: hydrochloride)
218

Could you share which melting point value was measured for CCNC[C@@H](O)Cc1ccc(Cl)c(C(=O)NCC23CC4CC(CC(C4)C2)C3)c1 (as salt: hydrochloride) ?
214

Fill in: melting point of O=C(NCC12CC3CC(CC(C3)C1)C2)c1cc(C[C@@H](O)CNCCCO)ccc1Cl (as salt: hydrochloride) is ___
225
